B1: mRNA-splicing (parent)
chain: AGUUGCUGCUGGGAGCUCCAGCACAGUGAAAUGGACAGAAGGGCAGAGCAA

Variants of: B1
Assay: exon inclusion enrichment index; higher = more inclusion; WT1 exon 5 minigene, HEK293
Think of 0.3 as a floor: if exon inclusion enrichment index stands on it or above, it is 1; beneath it, -1.

Solved entries (count: 5):
seq.string	assigned.label
AGUUCACGACGGGAGCUCCAGCACAGUGAAAUGGACAGAAGGGCAGAGCAA [G5C C6A U7C C9A U10C]	1
AGUUAUAUAUGGCAGCUCCAGCACAGUGAAAUGGACAGAAGGGCAGAGCAA [G5A C6U U7A G8U C9A G13C]	-1
AGUUGAAGAAGGGAGCUCCAGCACAGUGAAAUGAACAGAAGGGCAGAGCAA [C6A U7A C9A U10A G34A]	1
AGUUGCUGCUGGGAGCUCCAGCACUCUGAAAUGGACAGAAGGGCAGAGCAA [A25U G26C]	-1
AGUUUCUCUUGGGAGCUCCAGCACAGUGAAAUGGACAGAAGGGCAGAGCAA [G5U G8C C9U]	1

Okay, now this variant:
Hi team, for AUAUACCACCGGGAGCUCCAGCACAGUGAAAUGGACAGAAGGGCAGAGCAA [G2U U3A G5A U7C G8A U10C] , is the recorded exon inclusion enrichment index at or above 0.3?
1
